Origin of measurements: patent US12559449B2

Assay: Pharmacokinetics in SD rats, intravenous injection or intragastric administration
Assay type: in vivo
Conditions: male, Sprague-Dawley, rat, plasma, iv, injection (1 mg/kg), read-out: residence time MRT
quantityMeasured: MRT
The answer should read as a number with its unit following.

molecule | MRT
O=C(O)c1cc(N2CCCOc3ccc(F)cc32)ncc1-c1nc2ccc(F)cc2o1 [Compound 15] | 4.5 h
O=C(O)c1cc(N2CCCOc3ccc(F)cc32)ncc1-c1nc2ccccc2o1 [Compound 12] | 7.3 h
O=C(O)c1cc(N2CCCOc3ccc(F)cc32)ncc1-c1nc2cc(F)ccc2o1 [Compound 14] | 4.5 h
COc1ccc2c(c1OCc1ccccc1)C[C@@H](C(=O)O)N(C(=O)C(c1ccccc1)c1ccccc1)C2 [olodanrigan, reference compound] | 0.92 h

Shift focus to the following entry.
The molecule listed as N#Cc1ccc2nc(-c3cnc(N4CCCOc5ccc(F)cc54)cc3C(=O)O)oc2c1 [Compound 16] shows MRT equal to 3.2 h
